These data points were gathered from ChEMBL document CHEMBL3769364.

# Test system: Detroit 551
# ASSAY: Cytotoxicity against human Detroit 551 cells after 48 hrs by MTT assay
# APPLIED_CONDITIONS: Detroit 551, 48 h
EXPERIMENTAL_READOUT: IC50

Can you share its IC50? I mean this compound: COC(=O)c1cnc2c(c1)c1ccccc1n2Cc1c(Cl)cccc1Cl
> 50 µM

----------
# System: Detroit 551
# ASSAY: Cytotoxicity against human Detroit 551 cells after 48 hrs by MTT assay
# APPLIED_CONDITIONS: Detroit 551, 48 h
pIC50: −log10 of the molar value.
EXPERIMENTAL_READOUT: pIC50

Worked cases, pIC50 given:
COC(=O)c1cnc2c(c1)c1ccccc1n2Cc1cccc(OC)c1 :: < 4.30
COC(=O)c1cnc2c(c1)c1ccccc1n2Cc1ccsc1 :: < 4.30
OCc1cnc2c(c1)c1ccccc1n2Cc1ccc(Cl)c(Cl)c1 :: < 4.30

Can you share its pIC50? I mean this compound: OCc1cnc2[nH]c3ccccc3c2c1
< 4.30

Next entry: O=C(O)c1cnc2c(c1)c1ccccc1n2Cc1ccccc1
< 4.00
